tested-target: PCSK9 (Homo sapiens)
Construct: biotin (biotinylated); purchased
Sequence (Q8NBP7 153-692): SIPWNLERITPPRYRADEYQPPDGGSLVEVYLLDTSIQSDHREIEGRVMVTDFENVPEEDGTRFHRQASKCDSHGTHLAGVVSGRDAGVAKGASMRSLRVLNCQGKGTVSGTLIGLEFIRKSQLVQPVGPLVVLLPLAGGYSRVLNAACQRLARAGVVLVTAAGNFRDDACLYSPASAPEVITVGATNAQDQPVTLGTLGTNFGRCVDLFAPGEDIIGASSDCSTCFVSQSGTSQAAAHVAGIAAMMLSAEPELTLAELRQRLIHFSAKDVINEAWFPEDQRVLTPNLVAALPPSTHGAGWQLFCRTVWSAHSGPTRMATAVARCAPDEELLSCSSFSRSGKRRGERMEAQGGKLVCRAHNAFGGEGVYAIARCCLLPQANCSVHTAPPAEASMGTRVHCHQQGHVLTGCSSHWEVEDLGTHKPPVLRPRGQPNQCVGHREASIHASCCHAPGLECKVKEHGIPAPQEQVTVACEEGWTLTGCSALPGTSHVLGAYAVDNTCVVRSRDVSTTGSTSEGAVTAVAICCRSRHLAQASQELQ
assay-info: PCSK9 Alexa FRET Ultra TR-FRET assay
Type: binding
measurement-setup: Ki Ultra, calculated from IC50 and KD of AF cyclic peptide; 0.5 nM PCSK9, 960 nM AF cyclic peptide; read-out: Alexa FRET Ultra TR-FRET
pKi: −log10 of the molar value.
experimental-endpoint: pKi

[[record]]
smiles_input = "COc1ccc(C[C@@H]2NC(=O)[C@H]([C@@H](C)O)NC(=O)[C@@H]3[C@@H]4CCN3C(=O)[C@@H]3Cc5cn(c6ccc(F)cc56)CCCCCCN(Cc5ccc(cc5)CCNC(=O)[C@]5(C)CCCN5C2=O)C(=O)CCC(=O)N[C@@H](C)C(=O)N[C@H](CNC(=O)CCOCCOCC[N+](C)(C)CCNC(=O)COCCOCCNC(=O)COCCOCCNC(=O)CC[C@@H](NC(=O)CC[C@@H](NC(=O)CCCCCCCCCCCCCCCCC(=O)O)C(=O)O)C(=O)O)C(=O)N[C@@H](Cc2cccc(c2)CNC(=O)CO4)C(=O)N3)cc1"
test_result = 11.52

[[record]]
smiles_input = "COc1ccc(C[C@@H]2NC(=O)[C@H]([C@@H](C)O)NC(=O)[C@@H]3[C@@H]4CCN3C(=O)[C@@H]3Cc5cn(c6ccc(F)cc56)CCCCCCN(Cc5ccc(cc5)CCNC(=O)[C@]5(C)CCCN5C2=O)C(=O)CCC(=O)N[C@@H](CNC(=O)CCOCCOCC[N+](C)(C)CCNC(=O)COCCOCCNC(=O)COCCOCCNC(=O)CC[C@H](NC(=O)CCCCCCCCCCCCCCC(=O)O)C(=O)O)C(=O)N[C@H](CNC(=O)CCOCCOCC[N+](C)(C)C)C(=O)N[C@@H](Cc2cccc(c2)CNC(=O)CO4)C(=O)N3)cc1"
test_result = 10.55

[[record]]
smiles_input = "COc1ccc(C[C@@H]2NC(=O)[C@H]([C@@H](C)O)NC(=O)[C@@H]3[C@@H]4CCN3C(=O)[C@@H]3Cc5cn(c6ccc(F)cc56)CCCCCCN(Cc5ccc(cc5)CCNC(=O)[C@]5(C)CCCN5C2=O)C(=O)CCC(=O)N[C@@H](C)C(=O)N[C@H](CNC(=O)COCCOCCNC(=O)COCCOCCNC(=O)CC[C@H](NC(=O)CC[C@H](NC(=O)CCOCCOCC[N+](C)(C)CCNC(=O)CCCCCCCCCCCCCCC(=O)O)C(=O)O)C(=O)O)C(=O)N[C@@H](Cc2cccc(c2)CNC(=O)CO4)C(=O)N3)cc1"
test_result = 11.22

[[record]]
smiles_input = "COc1ccc(C[C@@H]2NC(=O)[C@H]([C@@H](C)O)NC(=O)[C@@H]3[C@@H]4CCN3C(=O)[C@@H]3Cc5cn(c6ccc(F)cc56)CCCCCCN(Cc5ccc(cc5)CCNC(=O)[C@]5(C)CCCN5C2=O)C(=O)CCC(=O)N[C@@H](C)C(=O)N[C@H](CNC(=O)COCCOCC[N+](C)(C)CCOCCNC(=O)COCCOCCNC(=O)COCCOCCNC(=O)CC[C@H](NC(=O)CCCCCCCCCCCCCCC(=O)O)C(=O)O)C(=O)N[C@@H](Cc2cccc(c2)CNC(=O)CO4)C(=O)N3)cc1"
test_result = 11.70

[[record]]
smiles_input = "COc1ccc(C[C@@H]2NC(=O)[C@H]([C@@H](C)O)NC(=O)[C@@H]3[C@@H]4CCN3C(=O)[C@@H]3Cc5cn(c6ccc(F)cc56)CCCCCCN(Cc5ccc(cc5)CCNC(=O)[C@]5(C)CCCN5C2=O)C(=O)CCC(=O)N[C@@H](C)C(=O)N[C@H](CNC(=O)COCCOCCNC(=O)COCCOCCNC(=O)CCCCC[N+](C)(C)CCNC(=O)CC[C@H](NC(=O)CCCCCCCCCCCCCCCCC(=O)O)C(=O)O)C(=O)N[C@@H](Cc2cccc(c2)CNC(=O)CO4)C(=O)N3)cc1"
test_result = 11.40

